Recorded values, source patent US12359182B2.

# system: Bifidobacterium bifidum lactase of SEQ ID NO: 1, variant G856E (Bifidobacterium bifidum, UniProt A4K5H9, G888E)
# Construct: purified sample
# Sequence (A4K5H9 33-1336 G888E): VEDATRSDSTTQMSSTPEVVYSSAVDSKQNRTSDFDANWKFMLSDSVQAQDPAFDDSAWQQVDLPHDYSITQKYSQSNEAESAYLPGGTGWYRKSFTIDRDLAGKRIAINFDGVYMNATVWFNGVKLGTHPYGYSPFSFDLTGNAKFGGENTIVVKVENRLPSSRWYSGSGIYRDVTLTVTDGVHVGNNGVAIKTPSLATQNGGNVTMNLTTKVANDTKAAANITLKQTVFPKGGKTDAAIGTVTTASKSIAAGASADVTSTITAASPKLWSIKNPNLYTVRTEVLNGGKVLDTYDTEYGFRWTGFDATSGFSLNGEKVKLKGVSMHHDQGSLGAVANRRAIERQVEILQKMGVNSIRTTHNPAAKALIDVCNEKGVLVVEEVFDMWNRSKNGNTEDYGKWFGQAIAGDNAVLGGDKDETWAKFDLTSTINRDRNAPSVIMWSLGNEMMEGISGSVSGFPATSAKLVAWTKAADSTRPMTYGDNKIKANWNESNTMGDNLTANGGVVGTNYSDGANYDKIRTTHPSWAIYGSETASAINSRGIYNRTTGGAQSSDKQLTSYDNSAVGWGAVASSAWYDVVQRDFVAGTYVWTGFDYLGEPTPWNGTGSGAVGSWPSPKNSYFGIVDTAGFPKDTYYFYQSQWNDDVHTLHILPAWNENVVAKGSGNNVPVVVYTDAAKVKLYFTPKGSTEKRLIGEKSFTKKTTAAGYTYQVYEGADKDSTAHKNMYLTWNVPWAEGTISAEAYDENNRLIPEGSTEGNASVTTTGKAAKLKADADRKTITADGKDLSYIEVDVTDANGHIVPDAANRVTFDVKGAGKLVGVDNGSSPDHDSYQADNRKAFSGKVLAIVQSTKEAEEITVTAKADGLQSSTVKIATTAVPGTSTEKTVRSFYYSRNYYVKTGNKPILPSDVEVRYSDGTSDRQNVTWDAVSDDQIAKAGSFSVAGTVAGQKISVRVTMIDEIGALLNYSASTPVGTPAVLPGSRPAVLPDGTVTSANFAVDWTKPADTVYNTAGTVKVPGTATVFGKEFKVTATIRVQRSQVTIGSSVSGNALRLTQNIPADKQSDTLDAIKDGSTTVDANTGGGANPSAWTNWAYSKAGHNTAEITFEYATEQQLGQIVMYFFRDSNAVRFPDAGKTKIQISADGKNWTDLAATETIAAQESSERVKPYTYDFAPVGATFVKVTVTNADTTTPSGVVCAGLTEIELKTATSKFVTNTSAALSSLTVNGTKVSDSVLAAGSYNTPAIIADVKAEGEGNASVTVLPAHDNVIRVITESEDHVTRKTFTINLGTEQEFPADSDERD
# assay: biochemical
pKi: −log10 of the molar value.

{"compound": "OC[C@H]1OC(O)[C@H](O)[C@@H](O)[C@H]1O (stereo partly drawn) [galactose, D-(+)-Galactose]", "pKi": 1.39}
